- Tested on: NCI-H661;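 also: cell viability assay read-out, IC50 being the concentration that inhibits growth of the cells by half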
- Protocol: cells
- Format: functional, cell-based, Homo sapiens
- Condition Context: Homo sapiens, NCI-H661
- Description: SANGER: Inhibition of human NCI-H661 cell growth in a cell viability assay.
pIC50: −log10 of the molar value.

- Compound: "COc1cc(F)c(F)c(Nc2ccc(I)cc2F)c1NS(=O)(=O)C1(CC(O)CO)CC1 (centres undefined)"
  pIC50: "< 5.30"
- Compound: "C[C@]1(O)C[C@@H](c2nc(-c3ccc4ccc(-c5ccccc5)nc4c3)c3c(N)nccn32)C1 [LINSITINIB]"
  pIC50: "< 5.59"
- Compound: "O=c1cc(-c2cccc3c2Sc2ccccc2S3)oc(N2CCOCC2)c1 [KU-55933]"
  pIC50: "< 5.00"
- Compound: "O=C(c1cc(Cc2n[nH]c(=O)c3ccccc23)ccc1F)N1CCN(C(=O)C2CC2)CC1 [OLAPARIB]"
  pIC50: "< 5.30"
